- TARGET: Streptavidin (Streptomyces avidinii) (UniProt P22629)
- Sequence (P22629 whole entry, looked up): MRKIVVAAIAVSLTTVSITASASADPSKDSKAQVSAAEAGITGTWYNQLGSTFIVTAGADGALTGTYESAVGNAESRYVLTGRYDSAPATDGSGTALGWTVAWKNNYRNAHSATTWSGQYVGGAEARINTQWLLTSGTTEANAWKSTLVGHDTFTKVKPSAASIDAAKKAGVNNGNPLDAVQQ
- ASSAY_OVERVIEW: streptavidin binders on small-molecule microarray, primary screen, artefact control for SMM compound annotation, biophysical, 635/667 nm fluorescence (AID 1147);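 further: signal reflects streptavidin binding to arrayed compounds as a control protein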
- TEST_SETTINGS: streptavidin binding, higher = more signal
Classify by measured composite z-score: YES if it is equal to or exceeds 0.1, NO if it is smaller.

Exam item: Determine whether measured composite z-score meets or exceeds 0.1 for COc1c(C)cc(-c2cc3c(c(-c4ccccc4)n2)[Si](C(C)C)(C(C)C)OC3)cc1C
Marked response: YES

Exam item: Determine whether measured composite z-score meets or exceeds 0.1 for COc1ccc(C(O)C2C=CC3C(=O)N(c4ccccc4)C(=O)C3N2Nc2ccccc2)cc1OCc1ccccc1 (configuration not stated)
Marked response: YES

Exam item: Determine whether measured composite z-score meets or exceeds 0.1 for C[C@]1(C(=O)NC2CC2)c2ccccc2C(=O)N(Cc2ccc(OC(F)(F)F)cc2)[C@H]1c1ccc(CO)cc1
Marked response: NO

Exam item: Determine whether measured composite z-score meets or exceeds 0.1 for COc1cc(CO)cc(I)c1O[C@H]1C=C(C(=O)NCCO)C[C@@H](N(CC2CCCCC2)C(=O)c2ccc(C(F)(F)F)cc2)[C@@H]1O
Marked response: NO

Exam item: Determine whether measured composite z-score meets or exceeds 0.1 for O=C1O[C@@H](c2ccccc2)[C@@H](c2ccccc2)N2[C@@H](c3ccccc3OCCO)[C@]3(C(=O)Nc4ccc(C#CCCO)cc43)[C@@H](C(=O)N3CCN(c4ncccn4)CC3)[C@H]12
Marked response: YES

Exam item: Determine whether measured composite z-score meets or exceeds 0.1 for CC=CC(O)C1C=CC2C(=O)N(c3ccccc3)C(=O)C2N1Nc1ccccc1 (configuration not stated)
Marked response: YES

Exam item: Determine whether measured composite z-score meets or exceeds 0.1 for C=CC[C@@]1(C(=O)N2CCCCC2)N=C(c2ccc(OCCCO)cc2)O[C@@H]1c1ccccc1
Marked response: NO
